System: SN12C
Assay: NCI tumour cell line growth inhibition, 48 h
Active and inactive are the calls of the source. Rule as the data show it: active = GI50 up to about 1.1 µM and inactive = higher.
endpoint-name: GI50

Example compounds with recorded GI50:
compound=Cc1ccc(/C=C2\CCCCC2=O)cc1 study_system=SN12C endpoint_name=GI50 reading="97.5 µM (inactive)"
compound=Oc1ccc2c(c1)c1c(n2CCN2CCOCC2)-c2ccccc2CC1 study_system=SN12C endpoint_name=GI50 reading="41.8 µM (inactive)"
compound=CN(C)C(=S)/N=c1\ss/c(=N\S(=O)(=O)c2ccccc2)n1N(C)C study_system=SN12C endpoint_name=GI50 reading="> 100 µM (inactive)"
compound=Nc1nc(N)c2nc(-c3ccco3)cnc2n1 study_system=SN12C endpoint_name=GI50 reading="85.5 µM (inactive)"
compound=O=C1c2ccccc2CN1c1ccc(O)cc1 study_system=SN12C endpoint_name=GI50 reading="> 100 µM (inactive)"
compound=COc1cc2c(cc1C)NC(=O)/C2=C/c1c(Cl)[nH]c2cc(C)c(OC)cc12 study_system=SN12C endpoint_name=GI50 reading="1.86 µM (inactive)"

Specify measured GI50 for "O=C(n1c2ccccc2c2nnc(S)nc21)C(F)(F)F" .
> 100 µM (inactive)

In one line, give reported GI50 of the entry O=C(CCCC(=O)N1CC(CCl)c2ccc([N+](=O)[O-])cc21)N1CC(CCl)c2ccc([N+](=O)[O-])cc21 (stereo unspecified) .
> 100 µM (inactive)

Hello, please tell me recorded GI50 for this one: "Nc1cnc2c(c1)c(=O)nc1n2CCS1"
> 100 µM (inactive)

Annotate the compound "COc1ccc(C(=O)C#Cc2cnc(OC)nc2OC)cc1" with its measured GI50.
1.19 µM (inactive)

Consider the compound "Cc1c(/C=N/N(C)C)oc2c1cc(O)c1ncccc12" . State its measured GI50.
3.96 µM (inactive)

---

Tested on: OVCAR-8
Assay: NCI tumour cell line growth inhibition, 48 h
Active and inactive are the calls of the source. No stated cut-off is given here; in the data, active = GI50 up to about 1.1 µM and inactive = higher.
# valid calls are active, inactive; nothing else

compound="COc1cc2c(cc1OC)C1Cc3ccc(OC)c(OC)c3C[N+]1([O-])CC2 (stereo not given)" class=inactive
compound=CCOC(=O)CN(c1ccccc1)c1nc(=[N+](C)C)ss1 class=inactive
compound=CC(C)=C[C@@H]1O[C@H](O)[C@@H]([C@H]2CC[C@@]3(C)[C@@H]4CC[C@H]5C(C)(C)C(=O)CC[C@@]56C[C@@]46CC[C@]23C)[C@@H]1O class=inactive
compound="CC[C@@]1(O)C(=O)OCc2c1cc1n(c2=O)Cc2c-1nc1ccccc1c2/C=N\\NC(=O)C(N)Cc1c[nH]c2ccccc12 (stereo not given in full)" class=active
compound=CC(=O)c1ccc(/N=N/N2CCCC2)cc1 class=inactive
compound="O=c1cc(CO)oc2c3c(cc(O)c12)OCC(COC1OC(CO)C(O)C(O)C1O)=CC3 (stereo not given)" class=inactive
compound=O=C(n1c2ccccc2c2nnc(S)nc21)C(F)(F)F class=inactive
compound=Cn1nc(S(N)(=O)=O)s/c1=N/C(N)=S class=inactive

How was "O=C1NC(=O)/C(=C\c2ccncc2)N1" classified in this test?
inactive

Any idea what this test logged for "CC(/C=C/c1ccccc1)=N\NC(=S)N/N=C(C)/C=C/c1ccccc1" ?
inactive

---

System: SNB-75
Assay: NCI tumour cell line growth inhibition, 48 h
Calls of active or inactive are those of the source. Rule as the data show it: active = GI50 up to about 1.1 µM and inactive = higher.
endpoint-name: GI50

Use these answered entries as a reference point.
compound=N#CC(C#N)=C1/C(=C/C=C/C=C/C=C/c2ccc(N3CCCCC3)s2)S(=O)(=O)c2ccccc21 endpoint_name=GI50 reading="> 100 µM (inactive)"
compound="COc1ccc2c(c1OC)C(=O)N1C2=Cc2c(cc3c(c2OC)OCO3)CC1N(C)C (stereo unspecified)" endpoint_name=GI50 reading="29.8 µM (inactive)"
compound=Cc1ccc(Cc2nnc(S)[nH]2)cc1 endpoint_name=GI50 reading="> 100 µM (inactive)"

Please look at the following compound next.
Quickly give me recorded GI50 for "O=Nc1c(-c2c(O)[nH]c3ccc(I)cc23)[nH]c2ccccc12"
5.33 µM (inactive)
